test system: Saccharomyces cerevisiae; assay: protein stability index of tFT-peptide fusion (C-terminal peptide) (PSI (0-1 scale)); higher = more stable (slower turnover); conditions: genetic background: wild type; temperature: 30 C;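 also: PSI is a weighted mean of sequencing reads over stability bins, variants kept only with over 10 reads, mCherry proximal and sfGFP distal, peptide attached via GGGS linker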
Items are presented alongside their recorded protein stability index.
Give only the figure.

Examples from the recorded data:
ACFVVDHGPLHL = 0.695
PHPCSPAPPWPL = 0.694
GLCLFLIGVFSV = 0.442
WLVPLDYKEGVV = 0.687

query: Note protein stability index for the sequence shown: PNPRSPRPSPPS
result: 0.687

query: Note protein stability index for the sequence shown: YYKGGYLYLRLS
result: 0.253

query: Note protein stability index for the sequence shown: GGCVSRPLGRCV
result: 0.648
